- Test system: LN229 MGMT+/MMR− cells
- assay-method-text: Short-term cell viability assay, LN229 MGMT+/MMR- (shRNA targeting MSH2)
- Type: cell-based
- experimental-context: Homo sapiens, LN-229; Table II; read-out: IC50 against LN229 cell lines, MGMT MMR−
Give measured pIC50 for each item. Keep answers brief.
Expect pIC50 as a plain number equal to -log10 of the molar concentration.

Input line: Output pIC50 of O=NN(CCCl)C(=O)NC1CCCCC1 [CCNU, reference compound]
Output line: 4.57

Input line: Provide measured pIC50 value, entry: Cn1nnc2c(C(N)=O)ncn2c1=O [TMZ, reference compound]
Output line: 3.00

Input line: Using the record for NC(=O)c1ncn2c(=O)n(CCCl)nnc12 [MTZ, reference compound] , state its measured pIC50.
Output line: 4.29

Input line: Query pIC50 for NC(=O)c1ncn2c(=O)n(CCF)nnc12
Output line: 3.30

====

- Test system: LN229 MGMT+/MMR+ cells
- assay-method-text: Short-term cell viability assay, LN229 MGMT+/MMR+
- Format: cell-based
- experimental-context: Homo sapiens, LN-229; Table II; read-out: IC50 against LN229 cell lines, MGMT+ MMR+
measurement-kind: pIC50
Note: pIC50 values are expressed as the negative base-10 logarithm of concentration in M.

Input line: Give a short answer stating reported pIC50 for NC(=O)c1ncn2c(=O)n(CCF)nnc12 .
Output line: 3.23

Input line: Output measured pIC50 for this item: NC(=O)c1ncn2c(=O)n(CCCl)nnc12 [MTZ, reference compound]
Output line: 4.21

Input line: Give me measured pIC50, please, for this compound: O=NN(CCCl)C(=O)NC1CCCCC1 [CCNU, reference compound]
Output line: 4.67

Input line: Return reported pIC50. Input compound: Cn1nnc2c(C(N)=O)ncn2c1=O [TMZ, reference compound]
Output line: 3.13
